Where do the numbers come from? From ChEMBL document CHEMBL1145887.

# Tested on: Mus musculus
# Procedure details: In vivo nonfasting triglyceride in db/db mice after oral treatment
# Format: functional
Exercise: state measured Max reduction for each of the molecules provided.
Numbers only, in %.

Dear colleague, could you please provide Max reduction for the molecules listed below?
1. CC(C)(Oc1ccc(C(=O)c2ccc(Cl)cc2)cc1)C(=O)O
2. CCc1ccc(CCOc2ccc(CC3SC(=O)NC3=O)cc2)nc1 (centres undefined)
3. CCO[C@@H](Cc1ccc(OC/C=C/C#Cc2ccc(C#C/C=C/COc3ccc(C[C@H](OCC)C(=O)O)cc3)cc2)cc1)C(=O)O
4. Cc1cccc(Nc2cc(Cl)nc(SCC(=O)O)n2)c1C
5. CCO[C@@H](Cc1ccc(OC/C=C/C#Cc2cccc(C#C/C=C/COc3ccc(C[C@H](OCC)C(=O)O)cc3)c2)cc1)C(=O)O
6. CN(CCOc1ccc(CC2SC(=O)NC2=O)cc1)c1ccccn1 (centres undefined)
7. CCO[C@@H](Cc1ccc(OC/C=C(\C)c2ccc(-c3ccccc3)cc2)cc1)C(=O)O

Response:
1: 20; 2: 21; 3: 56; 4: 32; 5: 46; 6: 58; 7: 65

Dear colleague, could you please provide Max reduction for the molecules listed below?
1. CCO[C@@H](Cc1ccc(OC/C=C(\C)c2ccc(-c3ccc(/C(C)=C/COc4ccc(C[C@H](OCC)C(=O)O)cc4)cc3)cc2)cc1)C(=O)O
2. CCO[C@@H](Cc1ccc(OC/C=C/C#Cc2ccccc2)cc1)C(=O)O

Response:
60
57
